PROTOCOL DETAILS: Further set: percent hydrolysis by 5'-nucleotidase (Table 1B)
Format: in vitro ADME, Crotalus atrox
EXPERIMENTAL CONDITIONS: rattlesnake, 20 minutes incubation, 200 μl, read-out: Percent hydrolysis by 5'-nucleotidase, Assay 1
Method: Nucleotide samples (40-60 nmoles) were incubated at 37° C. for 10 minutes with 0.02 units 5'-nucleotidase in a total volume of 100 μl containing […] HEPES, pH 7.3 and […] MgCl2. […] Phosphate was determined by the absorbance of 820 nm. Blanks consisting of nucleotide but no enzyme were tested in parallel to correct for non-enzymatic hydrolysis. The protocol was as hereinabove except that the first incubation was for 20 minutes in a total volume of 200 μl, 0.1 mM HEPES and 10 mM MgCl2. […]
QUANTITY: metabolised at 20 min (%)

INSERT INTO measurements (compound, quantity, unit_spec, observed_measurement) VALUES
  ('COP(=O)(O)OC[C@H]1O[C@@H](n2cnc3c(=O)[nH]cnc32)[C@H](O)[C@@H]1O [Me-IMP, Methyl-5''-inosine-monophosphate]', 'metabolised at 20 min', '%', 1.5);

====

Tested on: human peripheral blood lymphocytes (HPBL)
PROTOCOL DETAILS: Response of normal HPBL to PHA (tritiated thymidine incorporation)
Assay type: cell-based
EXPERIMENTAL CONDITIONS: 0.1-100 μg/ml; FIG. 1
Procedure: In vitro: Both human peripheral blood lymphocytes (HPBL) and mouse spleen lymphocytes (MSL) were employed. […] For HPBL transformation, PHA and PWM were used at 0.5 μg/ml. For MSL transformation, Con A was used at 0.5 μg/ml, phytohemagglutinin (PHA, Murex Diagnostics, Atlanta, Ga.) at 0.5 μg/ml and lipopolysaccharide endotoxin (LPS, Sigma, St. Louis, Mo.) at 10 μg/ml. […]
QUANTITY: relative activity on HPBL response to PHA

INSERT INTO measurements (compound, observed_measurement) VALUES
  ('COP(=O)(O)OC[C@H]1O[C@@H](n2cnc3c(=O)[nH]cnc32)[C@H](O)[C@@H]1O [Me-IMP, Methyl-5''-inosine-monophosphate]', 'more active'),
  ('N=C(N)NCCC[C@H](NP(=O)(O)OC[C@H]1O[C@@H](n2cnc3c(=O)[nH]cnc32)[C@H](O)[C@@H]1O)C(=O)O [Arg-IMP, Arginine-5''-inosine-monophosphate]', 'more active'),
  ('CCOP(=O)(O)OC[C@H]1O[C@@H](n2cnc3c(=O)[nH]cnc32)[C@H](O)[C@@H]1O [E-IMP, Ethyl-5''-inosine-monophosphate]', 'more active'),
  ('CC(CCCC(C)(C)O)NP(=O)(O)OC[C@H]1O[C@@H](n2cnc3c(=O)[nH]cnc32)[C@H](O)[C@@H]1O (stereo partly shown) [Ha-IMP, (Heptamin-1-ol)-5''-inosine-monophosphate]', 'low');

====

PROTOCOL DETAILS: in vitro
Format: in vitro ADME, Crotalus atrox
EXPERIMENTAL CONDITIONS: rattlesnake, pH 7.3; 0.02 units 5'-nucleotidase, 37° C., 10 minutes; four experiments; read-out: Hydrolysis (%)
metabolised at 10 min under 10% gets fulfilled, anything at or over 10% gets not fulfilled.

INSERT INTO assay_data (compound, group_label) VALUES
  ('CCOP(=O)(O)OC[C@H]1O[C@@H](n2cnc3c(=O)[nH]cnc32)[C@H](O)[C@@H]1O [E-IMP, Ethyl-5''-inosine-monophosphate]', 'fulfilled'),
  ('COP(=O)(O)OC[C@H]1O[C@@H](n2cnc3c(=O)[nH]cnc32)[C@H](O)[C@@H]1O [Me-IMP, Methyl-5''-inosine-monophosphate]', 'fulfilled'),
  ('N=C(N)NCCC[C@H](NP(=O)(O)OC[C@H]1O[C@@H](n2cnc3c(=O)[nH]cnc32)[C@H](O)[C@@H]1O)C(=O)O [Arg-IMP, Arginine-5''-inosine-monophosphate]', 'not fulfilled'),
  ('CC(CCCC(C)(C)O)NP(=O)(O)OC[C@H]1O[C@@H](n2cnc3c(=O)[nH]cnc32)[C@H](O)[C@@H]1O (some centres unmarked) [Ha-IMP, (Heptamin-1-ol)-5''-inosine-monophosphate]', 'not fulfilled'),
  ('Nc1ncnc2c1ncn2[C@@H]1O[C@H](COP(=O)(O)O)[C@@H](O)[C@H]1O [Adenosine MP, adenosine-5''-monophosphate, reference compound]', 'not fulfilled');
